Could you please report measured pKd for the items listed next?
system_tested: T1, PUF4 RNA-binding domain (Saccharomyces cerevisiae, UniProt P25339 537-888)
T1 sequence: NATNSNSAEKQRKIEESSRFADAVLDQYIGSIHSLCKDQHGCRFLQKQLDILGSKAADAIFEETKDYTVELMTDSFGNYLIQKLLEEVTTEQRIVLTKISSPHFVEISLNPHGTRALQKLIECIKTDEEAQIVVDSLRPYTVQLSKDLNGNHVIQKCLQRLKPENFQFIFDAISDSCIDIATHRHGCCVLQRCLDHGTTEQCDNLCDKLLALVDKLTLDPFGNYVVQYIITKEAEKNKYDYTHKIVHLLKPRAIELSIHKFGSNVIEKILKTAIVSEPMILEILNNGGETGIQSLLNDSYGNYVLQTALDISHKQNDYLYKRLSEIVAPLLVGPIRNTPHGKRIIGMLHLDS
measurement_notes: Mg; RNA-MaP; 20 mM Na-HEPES pH 7.4, 30 mM KOAc, 0.75 mM MgCl2, 0.1% Tween-20, 5% glycerol, 0.1 mg/mL BSA, 2 mM DTT; 25 C; 0.0125-409.6 nM protein
test_settings: tags: N-His6-TEV cleaved; C-SNAP kept, Cy3B-labelled; label: tethered on chip by stalled RNA polymerase
Numbers only, as −log10 of the molar value.

Hello, I would appreciate it if you could give pKd for each entry below.
1. Ie_S4_P4E.1_K4.1_C4.1_H4.1_A4.1_F4.1_[+8C]_T4.1 (ssRNA) RNA: UUUGACAACUGAUCGUUCUUUCUUGUAUAUUCAUUCUUUCUCGAUCAGUUGUCUUU
2. Id_ii_S2_P3E.4_K3.3_C3.2_[C-2G]_H3.3_A3.1_F3.1_T3.2_[A10C] (ssRNA) RNA: UUUGAUUAAUAUGAUAUCGUUCUUUCUGUACACUAUAUCUUCUUUCUCGAUAUCAUAUUAAUCUUU

[7.88, 9.31]
